These measurements were taken from PubChem BioAssay (EPA / NIEHS).

- Read-out: ABC Transporter (ABCC3), ABCC3 (gene 8714)
- assay-summary: LTEA_HepaRG_ABCC3: Life Technologies and Expression Analysis (LTEA) Assay for ABC Transporter (ABCC3) using HepaRG (AID 2283462)
- run-conditions: mRNA level, 48 h; actives raise or lower the signal
The source made the active and inactive calls. The calls were made as follows: active = hit-call score of the fitted dose curve at least 0.9, where 1 is the maximum; inactive = score below 0.9.
The reply should be one of these categories: 1.0 for active, 0.0 for inactive

Field: example entries. Status: answers known.
compound | class-label
CCCCNC(=O)OCC#CI | 0.0
N#Cc1nn(-c2c(Cl)cc(C(F)(F)F)cc2Cl)c(N)c1S(=O)C(F)(F)F (stereo unspecified) | 0.0
CCOC(=O)C(Cl)Cc1cc(-n2nc(C)n(C(F)F)c2=O)c(F)cc1Cl (stereo unspecified) | 0.0
C=CCC1=C(C)C(OC(=O)C2C(C=C(C)C)C2(C)C)CC1=O (stereo unspecified) | 0.0
CCCC1COC(Cn2cncn2)(c2ccc(Cl)cc2Cl)O1 (stereo unspecified) | 1.0
CC1COC(Cn2cncn2)(c2ccc(Oc3ccc(Cl)cc3)cc2Cl)O1 (stereo unspecified) | 0.0

(Q) Which outcome was entered for the compound CS/C(C)=N/OC(=O)N(C)SN(C)C(=O)O/N=C(\C)SC in this test?
(A) 0.0

(Q) Please let me know the test result on file for COc1ccc(C(c2ccc(OC)cc2)C(Cl)(Cl)Cl)cc1 .
(A) 1.0

(Q) // return assay outcome for COc1nc(NC(C)C)nc(NC(C)C)n1
(A) 0.0
